# Tested on: HOP-62 complex spheroids with HUVEC/MSC, viability
# Assay method text: Anticancer human tumor HOP-62 cell line growth inhibition [RAS]; active = viability on the fitted dose curve at most 10% of control; inactive = the rest;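 also: spheroids exposed to agents for seven days before readout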
# Particulars: second compound 0.1 µM; first compound 0.00949 µM
# Source text: RAS pathway inhibitors in Combinations in Complex Spheroids A high-throughput screen of multi-cell type tumor spheroids was designed to identify active combinations of RAS pathway inhibitors and targeted small molecules. Complex spheroids include a stromal component modeled by human endothelial cells (HUVEC) and fibroblasts modeled by human mesenchymal stem cells (MSCs). […] Compounds. […] If the clinical Cmax for an agent had not been determined, the highest concentration tested was 10 microM. […]
Classes used: active, inactive

Compound	Discrete label
CCc1c2c(nc3ccc(O)cc13)-c1cc3c(c(=O)n1C2)COC(=O)[C@]3(O)CC + C#Cc1c(F)ccc2cc(O)cc(-c3ncc4c(N5CC6CCC(C5)N6)nc(OCC56CCCN5CC(F)C6)nc4c3F)c12	active
CCc1c2c(nc3ccc(O)cc13)-c1cc3c(c(=O)n1C2)COC(=O)[C@]3(O)CC + C=CC(=O)N1CCN(c2nc(OCC3CCCN3C)nc3c(F)c(-c4nc(N)cc(C)c4C(F)(F)F)c(Cl)cc23)C(C)C1	active
CC1(C)CCC(Nc2ncc(C(F)(F)F)c(-c3c[nH]c4c(P(C)(C)=O)c(C#N)ccc34)n2)CN1 (centres undefined) + C#Cc1c(F)ccc2cc(O)cc(-c3ncc4c(N5CC6CCC(C5)N6)nc(OCC56CCCN5CC(F)C6)nc4c3F)c12	inactive
CC1(C)CCC(Nc2ncc(C(F)(F)F)c(-c3c[nH]c4c(P(C)(C)=O)c(C#N)ccc34)n2)CN1 (centres undefined) + C=CC(=O)N1CCN(c2nc(OCC3CCCN3C)nc3c(F)c(-c4nc(N)cc(C)c4C(F)(F)F)c(Cl)cc23)C(C)C1	inactive
